B1: Androgen receptor, residues 557 to 632; numbered along this chain, P10275 (parent)
chain: QKTCLICGDEASGCHYGALTCGSCKVFFKRAAEGKQKYLCASRNDCTIDKFRRKNCPSCRLRKCYEAGMTLGARKL

Variants of: B1
procedureText: abundance fitness (aPCA) (normalised: wild type 0, dead -1); higher = more abundant; growth selection in yeast, the domain comes from the species named
assaySetup: Homo sapiens
In this section we review reported abundance fitness values for a set of variants.
A bare number is all that is needed in reply.

Below, each entry is followed by its recorded abundance fitness result.
[
  {
    "macromoleculeSequence": "QKTCLICGDEASGCHYGALVCGSCKVFFKRAAEGKQKYLCASRNDCTIDKFRRKNCPSCRLRKCYEAGMTLGARKL [T20V]",
    "abundance fitness": 0.04
  },
  {
    "macromoleculeSequence": "QKTCLICGDEASGCVYGALTCGSCKVFFKRAAEGKQKYLCASRNDCTIDKFRRKNCPSCRLRKCYEAGMTLGARKL [H15V]",
    "abundance fitness": -0.182
  },
  {
    "macromoleculeSequence": "QKTCLICGDEAQGCHYGALTCGSCKVFFKRAAEGKQKYLCASRNDCTIDKFRRKNCPSCRLRKCYEAGMTLGARKL [S12Q]",
    "abundance fitness": 0.049
  }
]

// returns reported abundance fitness for input QKTCLICGDEASGCHYGALTCGSCKVFFKRAAEGKQKYLCHSRNDCTIDKFRRKNCPSCRLRKCYEAGMTLGARKL [A41H]
-0.279

// returns reported abundance fitness for input QKTCLICGDEASGCHYGALTCGSCKVFFKRAAEGKPKYLCASRNDCTIDKFRRKNCPSCRLRKCYEAGMTLGARKL [Q36P]
-0.006

// returns reported abundance fitness for input QKTCLICGDEASGCHYGALTCGSCKVFFKRAAEGKQKYLCRSRNDCTIDKFRRKNCPSCRLRKCYEAGMTLGARKL [A41R]
-0.051

// returns reported abundance fitness for input QKTCLIEGDEASGCHYGALTCGSCKVFFKRAAEGKQKYLCASRNDCTIDKFRRKNCPSCRLRKCYEAGMTLGARKL [C7E]
-1.03

// returns reported abundance fitness for input QKTCLICGDEASGCHYGALTCGSCKVQFKRAAEGKQKYLCASRNDCTIDKFRRKNCPSCRLRKCYEAGMTLGARKL [F27Q]
-0.839

// returns reported abundance fitness for input QKTCLICGDEASGCHYGALTCGSCKVFFKRAAEDKQKYLCASRNDCTIDKFRRKNCPSCRLRKCYEAGMTLGARKL [G34D]
-0.372

// returns reported abundance fitness for input QKTCLICGDEASGCHYGALTCGSCKVFFKRAAEGKQKYCCASRNDCTIDKFRRKNCPSCRLRKCYEAGMTLGARKL [L39C]
-0.069
